- Tested on: Erysiphe graminis
- measurement-notes: Erysiphe graminis protective spray test on barley seedlings (greenhouse)
- Type: in vivo
- reported-conditions: 5 mg/l Spritzbrühe; barley seedlings HERTA, infected 2 days after spraying, read 7 days after infection vs infected untreated control
observation-type: Wirkung (in %) Erysiphe graminis
Only the number, expressed in %, is required.

Problem: What does the data say about its Wirkung (in %) Erysiphe graminis? Entry: CC(Cc1ccc(C(C)(C)C)cc1)CN1CCC2(CC1)OCCO2 (stereo not drawn)
Solution: 30

Problem: What does the data say about its Wirkung (in %) Erysiphe graminis? Entry: CC(CN1CCCCC1)C(O)c1ccc(C(C)(C)C)cc1 (stereo not drawn)
Solution: 75

Problem: What does the data say about its Wirkung (in %) Erysiphe graminis? Entry: CC(Cc1ccc(C(C)(C)C)cc1)CN1CCC(=O)CC1 (stereo not drawn)
Solution: 75

Problem: What does the data say about its Wirkung (in %) Erysiphe graminis? Entry: CC(Cc1ccc(C(C)(C)CCl)cc1)CN1CC(C)CC(C)C1 (stereo not drawn)
Solution: 85

Problem: What does the data say about its Wirkung (in %) Erysiphe graminis? Entry: CC(CN1CCC(=O)CC1)=C(C)c1ccc(C(C)(C)C)cc1
Solution: 0

Problem: What does the data say about its Wirkung (in %) Erysiphe graminis? Entry: CCC(C)(C)c1ccc(C(C)=C(C)CN2CCC(=O)CC2)cc1
Solution: 60

Problem: What does the data say about its Wirkung (in %) Erysiphe graminis? Entry: CCC(C)(C)c1ccc(CC(C)CN2CCC(=O)CC2)cc1 (stereo not drawn)
Solution: 20

Problem: What does the data say about its Wirkung (in %) Erysiphe graminis? Entry: CC(Cc1ccc(C(C)(C)CCl)cc1)CN1CCCCC1 (stereo not drawn)
Solution: 45

Problem: What does the data say about its Wirkung (in %) Erysiphe graminis? Entry: CC(CN1CCC2(CC1)OCCO2)=C(C)c1ccc(C(C)(C)C)cc1
Solution: 80

Problem: What does the data say about its Wirkung (in %) Erysiphe graminis? Entry: CCC(C)(C)c1ccc(CC(C)CN2CCC3(CC2)OCCO3)cc1 (stereo not drawn)
Solution: 75

Problem: What does the data say about its Wirkung (in %) Erysiphe graminis? Entry: CC(Cc1ccc(C(C)(C)CCl)cc1)CN1CC(C)OC(C)C1 (stereo not drawn)
Solution: 60

Problem: What does the data say about its Wirkung (in %) Erysiphe graminis? Entry: CCC(C)(C)c1ccc(C(C)=C(C)CN2CCC3(CC2)OCCO3)cc1
Solution: 75

###

- Test system: Venturia inaequalis
- measurement-notes: Venturia inaequalis protective spray test on apple seedlings
- Type: in vivo
- reported-conditions: 16 mg/l Spritzbrühe, infected 2 days after spraying, read on day 13 after infection vs infected untreated control
observation-type: Wirkung (in %) Venturia inaequalis
Write the numeric value and follow it with the unit.

Problem: What does the data say about its Wirkung (in %) Venturia inaequalis? Entry: CC(Cc1ccc(C(C)(C)CCl)cc1)CN1CC(C)OC(C)C1 (stereo not shown)
Solution: 67%

Problem: What does the data say about its Wirkung (in %) Venturia inaequalis? Entry: CCC(C)(C)c1ccc(CC(C)CN2CCC3(CC2)OCCO3)cc1 (stereo not shown)
Solution: 40%

Problem: What does the data say about its Wirkung (in %) Venturia inaequalis? Entry: CC(CN1CCC(=O)CC1)=C(C)c1ccc(C(C)(C)C)cc1
Solution: 10%

Problem: What does the data say about its Wirkung (in %) Venturia inaequalis? Entry: CCC(C)(C)c1ccc(C(C)=C(C)CN2CCC(=O)CC2)cc1
Solution: 37%

Problem: What does the data say about its Wirkung (in %) Venturia inaequalis? Entry: CC(Cc1ccc(C(C)(C)C)cc1)CN1CCC(=O)CC1 (stereo not shown)
Solution: 0%

Problem: What does the data say about its Wirkung (in %) Venturia inaequalis? Entry: CCC(C)(C)c1ccc(C(C)=C(C)CN2CCC3(CC2)OCCO3)cc1
Solution: 0%

Problem: What does the data say about its Wirkung (in %) Venturia inaequalis? Entry: CC(CN1CCC2(CC1)OCCO2)=C(C)c1ccc(C(C)(C)C)cc1
Solution: 0%

Problem: What does the data say about its Wirkung (in %) Venturia inaequalis? Entry: CC(Cc1ccc(C(C)(C)CCl)cc1)CN1CCCCC1 (stereo not shown)
Solution: 20%

Problem: What does the data say about its Wirkung (in %) Venturia inaequalis? Entry: CC(Cc1ccc(C(C)(C)CCl)cc1)CN1CC(C)CC(C)C1 (stereo not shown)
Solution: 33%

Problem: What does the data say about its Wirkung (in %) Venturia inaequalis? Entry: CC(CN1CCCCC1)C(O)c1ccc(C(C)(C)C)cc1 (stereo not shown)
Solution: 20%
